# System: SNB-75 CNS
# EXPERIMENTAL_PROTOCOL: NCI tumour cell line growth inhibition, 48 h
VALUE_KIND: TGI (µM)
Just the number please, in µM, no unit attached.

Here's what some known entries look like.
MOLECULE: C#Cc1cccc(N2C(=O)c3c(c(-c4ccccc4)c(-c4ccc(Cc5ccc(-c6c(-c7ccccc7)c7c(c(-c8ccccc8)c6-c6ccccc6)C(=O)N(c6cccc(C#C)c6)C7=O)cc5)cc4)c(-c4ccccc4)c3-c3ccccc3)C2=O)c1
VALUE_KIND: TGI
READING_UNIT: µM
QUANTITATIVE_READOUT: 79.9
--
MOLECULE: C=C1C(=O)O[C@H]2C[C@@]3(COC(C)=O)C=COC=C(COC(=O)C(C)C)C3CC12 (some centres not stated)
VALUE_KIND: TGI
READING_UNIT: µM
QUANTITATIVE_READOUT: 67.5

Data request: Looking for the measured TGI of COc1ccc(-c2cs/c(=N\N=C\c3ccc(O)cc3O)n2/N=C/c2ccc(O)cc2O)cc1 , can you help?
Data returned: 3.08

Data request: Cool, now Cc1cc2/c(=C\c3ccc(N(C)C)cc3)c3ccccc3n2[n+]1C
Data returned: 2.26

Data request: Cool, now O=C(Cc1nc2ccccc2c(=O)n1-c1ccccc1Cl)c1ccncc1
Data returned: 71.7

Data request: Cool, now CC1=C[C@H]2c3c([nH]c4ccccc34)C(c3c[nH]c4ccccc34)[C@H]2CC1 (some centres not stated)
Data returned: 19

Data request: Cool, now O=C1c2ccccc2-[n+]2ccc3c([nH]c4ccccc43)c21
Data returned: 1.93

----------
# System: MALME-3M melanoma
# EXPERIMENTAL_PROTOCOL: NCI tumour cell line growth inhibition, 48 h
VALUE_KIND: TGI

COMPOUND: COc1ccc2cc(/C=C/C(=O)c3ccc(Cl)cc3Cl)ccc2c1
VALUE_KIND: TGI
RESULT: 73.9 µM
--
COMPOUND: COc1cc2nc(SCc3cc(OC)c(OC)c(OC)c3)n(Cc3ccccc3)c(=O)c2cc1OC
VALUE_KIND: TGI
RESULT: 27 µM
--
COMPOUND: CN1CN(c2ccccc2)C2(CCN(CC(C)(c3ccc(F)cc3)C3OCCCO3)CC2)C1=O (stereo not given)
VALUE_KIND: TGI
RESULT: 30 µM
--
COMPOUND: O=[N+]([O-])c1cc(Cl)c2[nH]c3c(Cl)cc([N+](=O)[O-])cc3c2c1
VALUE_KIND: TGI
RESULT: 4.04 µM
--
COMPOUND: Cc1c2ccncc2cc2c1[nH]c1ccccc12
VALUE_KIND: TGI
RESULT: 20.5 µM
--
COMPOUND: COC(CN(C(C)=O)C1CCC2(SCCS2)c2[nH]c3ccccc3c21)OC (stereo not given)
VALUE_KIND: TGI
RESULT: > 100 µM

Data request: Looking for the measured TGI of Cc1ccc(NC=O)c(-c2c(N)[nH]c(=S)[nH]c2=O)c1 , can you help?
Data returned: > 100 µM

Data request: Cool, now CC(C)CCC[C@@H](C)[C@H]1CC[C@H]2[C@@H]3CC[C@H]4C[C@@H](CCC=C(c5cc(Cl)c(O)c(C(=O)O)c5)c5cc(Cl)c(O)c(C(=O)O)c5)CC[C@]4(C)[C@H]3CC[C@]12C
Data returned: > 100 µM

Data request: Cool, now Nc1nc(Cl)c(N)c(NCC2(CO)CC2)n1
Data returned: > 100 µM

Data request: Cool, now Cc1cnc2sn(-c3ccc([N+](=O)[O-])cc3)c(=O)c2c1
Data returned: > 100 µM

Data request: Cool, now COC(=O)/C=C(C)/C=C/C1OC(C)OCC1O (stereo not given)
Data returned: > 100 µM

Data request: Cool, now COc1cc2c(cc1OC)C(=O)N(c1ccc(O)cc1)C2=O
Data returned: > 100 µM

Data request: Cool, now [N-]=[N+]=NC1OC(=O)C(Cl)=C1N=P(c1ccccc1)(c1ccccc1)c1ccccc1 (stereo not given)
Data returned: > 10 µM

Data request: Cool, now CCOC(=O)c1nnsc1N/N=C\c1ccc([N+](=O)[O-])cc1
Data returned: > 100 µM

Data request: Cool, now CCC(O)c1ccc(Br)cc1NC(=O)c1cccc(Cl)c1 (stereo not given)
Data returned: > 100 µM

Data request: Cool, now CCc1ccc(NC(=O)NC(=O)c2ccccc2[N+](=O)[O-])cc1Oc1ncc(Cl)cn1
Data returned: > 100 µM

Data request: Cool, now CCC1CC2C(=O)N(c3ccccc3)C(=O)C2c2[nH]c3ccccc3c21 (stereo not given)
Data returned: 38.7 µM

Data request: Cool, now NC(=O)N/N=C(/CC1C(=O)Oc2ccccc21)c1ccccc1O (stereo not given)
Data returned: > 100 µM

Data request: Cool, now Cc1ccc(/C=N/n2c(-c3ccc(C)cc3)n[nH]c2=O)cc1
Data returned: > 100 µM

Data request: Cool, now C[C@@H]1C[C@H](C)CN(S(=O)(=O)c2ccc3c(NO)c4ccc(S(=O)(=O)N5C[C@H](C)C[C@H](C)C5)cc4c(N=O)c3c2)C1
Data returned: 0.293 µM
